test: qHTS assay to identify small molecule antagonists of the retinoic acid receptor (RAR) signaling pathway (AID 1159552; further: nearly all actives have a fitted effect of over 50% in size); details: C3RL4 RARE luciferase reporter, retinol-stimulated, 6 h; series mostly up to 92.4 µM
Results filed as inconclusive are left out. Activity calls are given as the source filed them. The call rests on the fitted dose curve; in most records, active means well fitted inhibition curve with a large enough effect in the repeat runs; inconclusive means weak or mixed curves, or effect the other way; inactive means no such curve, though single readings can be large or run the other way.
REPORTED_ENDPOINT: activity, negative = inhibition

Illustrative cases are given below, each with its answer.
[
  {
    "MOLECULE": "COCCOC[C@H](CC1(C(=O)NC2CCC(C(=O)O)CC2)CCCC1)C(=O)Oc1ccc2c(c1)CCC2 (stereo partly specified)",
    "RESULT": "inactive"
  },
  {
    "MOLECULE": "CCCC(C)C(=O)OCC (stereo unspecified)",
    "RESULT": "inactive"
  },
  {
    "MOLECULE": "C=C(C)C(=O)OCC1CCCO1 (stereo unspecified)",
    "RESULT": "inactive"
  },
  {
    "MOLECULE": "O=C(c1ccccc1O)c1ccccc1O",
    "RESULT": "inactive"
  },
  {
    "MOLECULE": "CC1CCC(CO)CC1 (stereo unspecified)",
    "RESULT": "inactive"
  },
  {
    "MOLECULE": "CC(C)=CCC/C(C)=C/C#N",
    "RESULT": "inactive"
  }
]

Request: Dear colleague, I am looking for the recorded activity, negative = inhibition of the following molecule: "CCN(CC#N)c1cccc(C)c1"
Response: inactive

Request: Dear colleague, I am looking for the recorded activity, negative = inhibition of the following molecule: "CCCCOC(=O)CCC(C)=O"
Response: inactive

Request: Dear colleague, I am looking for the recorded activity, negative = inhibition of the following molecule: CCCCCCCC1CCCC1=O (stereo unspecified)
Response: inactive

Request: Dear colleague, I am looking for the recorded activity, negative = inhibition of the following molecule: "CNC(=O)Nc1ccc(Cl)c(Cl)c1"
Response: inactive

Request: Dear colleague, I am looking for the recorded activity, negative = inhibition of the following molecule: "Cc1ccccc1N=C(N)N=C(N)N"
Response: inactive
